# tgt: ClbP (Escherichia coli, UniProt Q0P7K6)
# procedure summary: ClbP cell lysate activity (inhibition) assay, fluorogenic substrate
# Type: biochemical
# particulars: ClbP Lysate Inhibition Assay: IC50, E. coli ClbP+ lysozyme-EDTA lysates, 5 μM fluorogenic substrate, inhibitor 0-300 μM, 37° C., singlicate
attribute measured: IC50

Worked examples follow.
compound	IC50
O=C(C[C@@H](NC(=O)CCCC1CCCC1)C(=O)NCCc1ccc(O)cc1)NO [Compound CCXCIX]	< 100 µM
CCCCCCCCCC(=O)N[C@@H]1CC(=O)NC1(O)C(=O)NCc1ccccc1 (stereo partly drawn) [Compound […]]	100 to 300 µM
CCCCCCCC(=O)N[C@@H]1CC(=O)NC1(O)C(=O)NCCCC (stereo partly drawn) [Compound CCXC]	< 100 µM
CCCCCCCC(=O)N[C@H](CC(=O)NO)C(=O)NCCc1ccc(O)c(O)c1 [Compound CCXCIII]	< 100 µM
CCCCCCCNC(=O)[C@H](CC(N)=O)NC(=O)Oc1ccccc1 [Compound CCX]	> 300 µM

Go through the items and report each one's IC50.
1. CCCCCCCC(=O)N[C@H](CC(N)=O)C(=O)NCCc1ccc(Cl)cc1 [Compound CXCIV]
2. NC(=O)C[C@@H](NC(=O)CCCc1ccccc1)C(=O)NCCc1ccccc1 [Compound CCLXIX]

1: < 100 µM; 2: < 100 µM

State recorded IC50 for all listed compounds.
1. CCCCCCCC(=O)N[C@H](CC(N)=O)C(=O)NCCOc1ccccc1 [Compound CCLIV]
2. CCCCCCCC(=O)N[C@H](CC(N)=O)C(=O)N(CCc1ccc(O)cc1)C(C)C [Compound CCLXXVI]

["< 100 µM", "< 100 µM"]

* * *

Can you tell me pIC50 for the items I'm about to list?
# tgt: ClbP (Escherichia coli)
# procedure summary: ClbP whole cell activity (inhibition) assay, fluorogenic substrate
# Assay type: cell-based, E. coli
pIC50: −log10 of the molar value.

molecule	pIC50
CCCCCCCC(=O)N[C@H](CC(N)=O)C(=O)N(CCc1ccc(O)cc1)C(C)C [Compound CCLXXVI]	< 3.52

Look at each molecule and report its pIC50.
1. CCCCCCCC(=O)N[C@H](CC(N)=O)C(=O)NCCn1cccn1 [Compound CCXXVIII]
2. CCCCCCCC(=O)N[C@H](CC(N)=O)C(=O)NC[C@@H](C)c1ccccc1 [Compound CCCII]
3. CCCCCCCC(=O)N[C@H](CC(N)=O)C(=O)NCCc1ccc(OC)nc1 [Compound CCXXXVII]
4. CCCCCCCC(=O)N[C@H](CC(N)=O)C(=O)NCCc1ccc(OC)c(OC)c1 [Compound CCXLIX]

1: > 4.00; 2: > 4.00; 3: > 4.00; 4: > 4.00

// each molecule listed below needs its pIC50
1. CCCCCCCC(=O)N[C@H](CC(N)=O)C(=O)NCCc1ccsc1 [Compound CCVI]
2. CCCCCCCC(=O)N[C@](C)(CC(N)=O)C(=O)NCCc1ccc(O)cc1 [Compound CCCXI]

> 4.00
< 3.52

* * *

Entries with their measured pIC50, system Full-length WT ClbP (Escherichia coli, UniProt Q0P7K6):
pIC50: −log10 of the molar value.

List pIC50 for every entry below, keeping the order given.
1. NC(=O)C[C@@H](NC(=O)CC1CCCCC1)C(=O)NCCc1ccccc1 [Compound CCLXXI]
2. CCCCCCCC(=O)N[C@H](CN[C@@H](C)C(=O)OC)CC(N)=O [Compound CCLXXXI]
3. CCCCCCCC(=O)N[C@H](CC(N)=O)C(=O)NCCc1ccc(OC)cc1 [Compound CXCIX]

> 4.00
3.52 to 4.00
> 4.00
